System: CCRIS mutagenicity, Ames/micronucleus/aberration tests
assay-comment: CCRIS mutagenicity studies
condition-description: Test System: AMES SALMONELLA TYPHIMURIUM; Strain/Indicator: TA98; Metabolic Activation: NONE; Method: STANDARD PLATE
Excerpt: The CCRIS database contains chemical records with carcinogenicity, mutagenicity, tumor promotion, and tumor inhibition test results. It was developed by the National Cancer Institute (NCI). Data are derived from studies cited in primary journals, current awareness tools, NCI reports, and other sources. Test results have been reviewed by experts in carcinogenesis and mutagenesis. CCRIS provides historical information from the years 1985 - 2011. It is no longer updated. […]
Active and inactive are the calls of the source. No rule for the calls is given here.
One label from this list, please: active, inactive

Request: GET /call?item= CNC(=O)NOC(=O)N(C)C(=O)NC returns the recorded outcome of this test.
Result: inactive

Request: GET /call?item= c1ccc2c(c1)cc1c3c2ccc2cccc(c23)C2OC12 (stereo not given) returns the recorded outcome of this test.
Result: active

Request: GET /call?item= CC(=O)Nc1ccc(OCC(O)CNC(C)C)cc1 (stereo not given) returns the recorded outcome of this test.
Result: inactive

Request: GET /call?item= C[C@@H]1CC[C@@]2(OC1)O[C@H]1C[C@H]3[C@@H]4CC=C5C[C@@H](O[C@@H]6O[C@H](CO)[C@@H](O)[C@H](O[C@@H]7O[C@H](CO)[C@@H](O)[C@H](O)[C@H]7O)[C@H]6O[C@@H]6O[C@@H](C)[C@H](O)[C@@H](O)[C@H]6O)CC[C@]5(C)[C@H]4CC[C@]3(C)[C@H]1[C@@H]2C returns the recorded outcome of this test.
Result: inactive

Request: GET /call?item= Nc1cc(S(=O)(=O)O)cc2cc(S(=O)(=O)O)c(N=Nc3ccccc3)c(O)c12 returns the recorded outcome of this test.
Result: inactive

----------
System: CCRIS mutagenicity, Ames/micronucleus/aberration tests
assay-comment: CCRIS mutagenicity studies
condition-description: Test System: AMES SALMONELLA TYPHIMURIUM; Strain/Indicator: TA102; Metabolic Activation: NONE; Method: STANDARD PLATE
Active and inactive are the calls of the source. How the calls were made is not given here.
One label from this list, please: true (1) for active, false (0) for inactive

Request: GET /call?item= CNC(=O)Oc1cccc2c1OC(C)(C)C2 returns the recorded outcome of this test.
Result: false (0)

Request: GET /call?item= O=[N+]([O-])OCC(CO[N+](=O)[O-])O[N+](=O)[O-] returns the recorded outcome of this test.
Result: false (0)

Request: GET /call?item= CC1(C)CCCC(C)(C)N1[O] returns the recorded outcome of this test.
Result: false (0)

Request: GET /call?item= [Cl][Pd-2]([Cl])([Cl])[Cl] returns the recorded outcome of this test.
Result: false (0)

Request: GET /call?item= Cc1cc(-c2cc3c(cc2F)n2c(=O)n(O)c(=O)cc2n3C2CC2)cc(C)n1 returns the recorded outcome of this test.
Result: true (1)

Request: GET /call?item= CCCCC(CC)COC(=O)CCCCC(=O)O (stereo not drawn) returns the recorded outcome of this test.
Result: false (0)

Request: GET /call?item= Cc1nc2c(c3[nH]c4ccccc4c13)C(=O)C=C(N1CC1)C2=O returns the recorded outcome of this test.
Result: false (0)

Request: GET /call?item= CCC1C(C)=NN=C(c2ccc(OC)c(OC)c2)c2cc(OC)c(OC)cc21 (stereo not drawn) returns the recorded outcome of this test.
Result: false (0)

Request: GET /call?item= Cc1cccnc1 returns the recorded outcome of this test.
Result: false (0)

Request: GET /call?item= O=[N+]([O-])c1ccc(/C=N/n2cccn2)o1 returns the recorded outcome of this test.
Result: true (1)

Request: GET /call?item= Cn1c(CC(=O)OCCCl)c(C(=O)O)c2ccccc21 returns the recorded outcome of this test.
Result: false (0)

Request: GET /call?item= C\C=C(/C=C(C)/C=C(C)/C=C/C=C(\C)C(=O)[C@]12O[C@H]1[C@@](O)(CCO)NC2=O)C(=O)OC returns the recorded outcome of this test.
Result: false (0)

Request: GET /call?item= CCOC(=O)CCl returns the recorded outcome of this test.
Result: false (0)

Request: GET /call?item= CC(=O)O[C@H]1CC[C@]2(C)[C@H]3CC[C@]4(C)[C@@H]([C@H](C)CCCC(C)C)CC[C@H]4[C@@H]3C[C@@H]3N(N4C(=O)c5ccccc5C4=O)[C@@]32C1 (stereo partly drawn) returns the recorded outcome of this test.
Result: false (0)

Request: GET /call?item= C[C@@]1(CO)[C@H](O)CC[C@@]2(C)[C@H]1CC[C@H]1C[C@@H]3C[C@@]12CC[C@]3(O)CO returns the recorded outcome of this test.
Result: false (0)

Request: GET /call?item= ClCCl returns the recorded outcome of this test.
Result: false (0)

Request: GET /call?item= O=NO returns the recorded outcome of this test.
Result: false (0)

Request: GET /call?item= CCCCOCC(=O)O returns the recorded outcome of this test.
Result: false (0)

Request: GET /call?item= CC(C)(C)c1cc(Cc2cc(C(C)(C)C)c(O)c(C(C)(C)C)c2)cc(C(C)(C)C)c1O returns the recorded outcome of this test.
Result: false (0)

Request: GET /call?item= CCNc1nc(Cl)nc(NC(C)C)n1 returns the recorded outcome of this test.
Result: false (0)

Request: GET /call?item= C=CC=O returns the recorded outcome of this test.
Result: false (0)

Request: GET /call?item= CC1COCc2cc3c(cc21)C(C)(C)C(C)C3(C)C (stereo not drawn) returns the recorded outcome of this test.
Result: false (0)

Request: GET /call?item= CN[C@@H]1[C@H](O[C@H]2[C@H](O[C@H]3[C@H](O)[C@@H](O)[C@H](N=C(N)N)[C@@H](O)[C@@H]3N=C(N)N)O[C@@H](C)[C@]2(O)C=O)O[C@@H](CO)[C@H](O)[C@H]1O returns the recorded outcome of this test.
Result: true (1)

----------
System: CCRIS mutagenicity, Ames/micronucleus/aberration tests
assay-comment: CCRIS mutagenicity studies
condition-description: Test System: AMES SALMONELLA TYPHIMURIUM; Strain/Indicator: TA98; Metabolic Activation: NONE; Method: SUSPENSION/PLATE
Active and inactive are the calls of the source. The rule behind the calls is not given here.
value-kind: mutagenic call

Solved entries:
Request: Name the recorded mutagenic call of the compound listed here: Cc1ccc(N)cc1[N+](=O)[O-]
Result: inactive; negative

Request: Name the recorded mutagenic call of the compound listed here: CCC[CH2][Sn]([Cl])([Cl])[CH2]CCC
Result: inactive; negative

Request: Name the recorded mutagenic call of the compound listed here: CC(=O)N(C(C)=O)c1ccc(C)c(N=Nc2ccccc2C)c1
Result: inactive; negative

Request: Name the recorded mutagenic call of the compound listed here: CCC[CH2][Sn]([CH2]CCC)([CH2]CCC)[CH2]CCC
Result: inactive; negative

Others:
Request: Name the recorded mutagenic call of the compound listed here: Cc1ccc(N=O)cc1[N+](=O)[O-]
Result: inactive; negative

----------
Test system: CCRIS mutagenicity, Ames/micronucleus/aberration tests
assay-comment: CCRIS mutagenicity studies
condition-description: Test System: AMES SALMONELLA TYPHIMURIUM; Strain/Indicator: TA98(1,8-DNP); Metabolic Activation: NONE; Method: PREINCUBATION
Active and inactive are the calls of the source. No rule for the calls is given here.
One label from this list, please: active, inactive

Request: GET /call?item= Nc1nc(-c2ccc([N+](=O)[O-])cc2)nc2nc[nH]c12 returns the recorded outcome of this test.
Result: active

Request: GET /call?item= Nc1ncnc2c1ncn2Cc1ccc([N+](=O)[O-])cc1 returns the recorded outcome of this test.
Result: inactive

Request: GET /call?item= Nc1nc(-c2ccc([N+](=O)[O-])cc2)nc2c1ncn2[C@@H]1O[C@H](CO)[C@@H](O)[C@H]1O returns the recorded outcome of this test.
Result: active

Request: GET /call?item= Nc1ncnc2c1ncn2-c1ccc([N+](=O)[O-])cc1[N+](=O)[O-] returns the recorded outcome of this test.
Result: inactive

----------
System: CCRIS mutagenicity, Ames/micronucleus/aberration tests
assay-comment: CCRIS mutagenicity studies
condition-description: Test System: AMES SALMONELLA TYPHIMURIUM; Strain/Indicator: TA100; Metabolic Activation: RAT, LIVER, S-9, AROCLOR 1254; Method: STANDARD PLATE
Calls of active or inactive are those of the source. The rule behind the calls is not given here.
One label from this list, please: TRUE (active), FALSE (inactive)

Request: GET /call?item= C=CC(=O)OCCCCCOC(=O)C=C returns the recorded outcome of this test.
Result: FALSE

Request: GET /call?item= Cc1cc(C)cc(C)c1 returns the recorded outcome of this test.
Result: FALSE

Request: GET /call?item= CCCn1cc2c3c(cccc31)C1C[C@@H](C)CN(C#N)[C@@H]1C2 (some centres not stated) returns the recorded outcome of this test.
Result: TRUE

Request: GET /call?item= Cc1ccc2c(c1)C(C)c1ccccc1-2 (configuration not stated) returns the recorded outcome of this test.
Result: TRUE

Request: GET /call?item= O=[N+]([O-])c1cc([N+](=O)[O-])c2ccc3cccc4ccc1c2c43 returns the recorded outcome of this test.
Result: FALSE

Request: GET /call?item= CCOCOCC returns the recorded outcome of this test.
Result: FALSE

Request: GET /call?item= O=C(O)COc1ccc2ccccc2c1 returns the recorded outcome of this test.
Result: FALSE

Request: GET /call?item= O=c1cn[nH]c(=O)[nH]1 returns the recorded outcome of this test.
Result: FALSE

Request: GET /call?item= Nc1ccc(N=Nc2ccc(N)cc2)cc1 returns the recorded outcome of this test.
Result: FALSE

Request: GET /call?item= CCCCOCC(=O)O returns the recorded outcome of this test.
Result: FALSE

Request: GET /call?item= c1ccc(-c2ccccc2)cc1 returns the recorded outcome of this test.
Result: FALSE

Request: GET /call?item= O=NN1CCCCC1 returns the recorded outcome of this test.
Result: FALSE
